# System: SNB-78
# assay.notes: NCI tumour cell line growth inhibition, 48 h
The source made the active and inactive calls. Cut-off read from the data, not from the text of the source: active = GI50 up to about 1.1 µM and inactive = higher.
Reply using exactly one outcome from active, inactive

Q. Please let me know the test result on file for CN1CCC(C(=O)NNc2ccccc2)CC1 .
A. inactive

Q. Ok, now CSc1nc(NC2OC(COC(C)=O)C(OC(C)=O)C(OC(C)=O)C2OC(C)=O)c2c(n1)OCC2=O (stereo not given)
A. inactive

Q. Now this one: COC1CC(CC2CCC(C)C(C(C)C(=O)O)O2)OC2(OC(C)(C3CCC(C)(C4OC(C5OC(O)(CO)C(C)CC5C)CC4C)O3)CC2C)C1C (stereo not given)
A. inactive

Q. Repeat for the following molecule: COC(=O)N/N=C(\C)CC(=O)Nc1ccc(Cl)cc1
A. inactive

Q. Also CC(C)=CC(=O)c1c(C(=O)O)nc2ccccc2[n+]1[O-] ?
A. inactive

Q. And what about the molecule CC(N)Cc1ccc(F)cc1 (stereo not given) ?
A. inactive

Q. Then CC1CC(c2ccc([N+](=O)[O-])cc2)=Nc2ccccc2[S+]1[O-] (stereo not given) ?
A. inactive

Q. COc1ccc(N2C(=O)C3c4[nH]c5ccccc5c4C4CCC(C(C)(C)C)CC4C3C2=O)cc1OC (stereo not given) , same question.
A. inactive

Q. Next molecule: COC(=O)C(Cc1nc2ccccc2nc1O)/C(=N\NC(C)(C)C)C(=O)Nc1c(C)cc(Br)cc1C (stereo not given)
A. inactive

Q. How about this molecule: CCOc1ccc(NC(=O)CC2Sc3ccccc3NC2=O)cc1 (stereo not given)
A. inactive

Q. Repeat for the following molecule: CCCCCCCCCCCCCCCCCC(=O)NCC(COP(=O)(O)O)OCC (stereo not given)
A. inactive

Q. What do you get for CC(C)(C)OP(=O)(OC(C)(C)C)C(O)c1ccc(/C=C(\C#N)C(N)=O)cc1 (stereo not given) ?
A. inactive

Q. Request: COc1cccc(OC)c1/C=N\N1C(=O)c2ccccc2C1=O
A. inactive

Q. Now the molecule O=C(O)CC[C@H](NC(=O)c1ccc(-n2nc3ccc(=O)cc-3[nH]c2=O)cc1)C(=O)O
A. inactive

Q. Same question, COc1cc2c(cc1OC)[C@H]1CN3CCC[C@H]3C=C1c1ccc(OC)c(O)c1-2 this time
A. active

Q. Next molecule up: CCC1=CCN(c2cc(C)ccn2)OC1c1ccccc1 (stereo not given)
A. inactive

Q. Follow-up entry: C=CC1[C@H]2COC(C)(C)O[C@@H]2CC(=O)C1(C)C (stereo not given in full)
A. inactive

Q. What do you have for Nc1nc(N)c(CCCCc2ccccc2)c(C=O)n1 ?
A. inactive

Q. // query: OC1(C23CC4CC(CC(C4)C2)C3)CSCC1(O)C12CC3CC(CC(C3)C1)C2 (stereo not given)
A. inactive

Q. Next molecule up: CCCCOP1(=O)C=C(C)C(=C(Cl)Cl)C(C)=C1 (stereo not given)
A. active

====

# Tested on: MCF7
# assay.notes: NCI tumour cell line growth inhibition, 48 h
Calls of active or inactive are those of the source. Rule as the data show it: active = GI50 up to about 1.1 µM and inactive = higher.
Would you kindly list GI50 for each of these compounds?

Q. Name the reported GI50 value associated with the compound Cc1ncc(COP(=O)(O)O)c(/C=C2\SC(=S)NC2=O)c1O
A. > 100 µM (inactive)

Q. Similarly, COc1ccc(C(=O)/C=C2\C(=O)Nc3ccc(Br)cc32)cc1 ?
A. 6.44 µM (inactive)

Q. Let us now turn to Cc1ccc(S(=O)(=O)NNC(=O)c2cc(C)c(C)cc2N)cc1
A. > 100 µM (inactive)

Q. Entry C=C=C(CC(CC(=C)Br)(C(=O)OC)C(=O)OC)S(=O)(=O)c1ccccc1 please
A. 1.87 µM (inactive)

Q. Same question for Cc1ccc2c(c1)C(C1Cc3c(C)cccc3C1=O)OC2=O (stereo unspecified) please.
A. > 100 µM (inactive)

Q. Same read-out for Cc1ccc2sc3ccc(N)cc3c(=O)c2c1 ?
A. 26.5 µM (inactive)

Q. What would you report for COc1ccccc1/N=N/C(=N\NC(=O)c1ccc(C)cc1)c1ccc(N(CCC#N)CCC#N)cc1C ?
A. 34.6 µM (inactive)

Q. Would you mind doing NC(=O)C(=CNC(=S)Nc1ccccc1)C(N)=O as well?
A. > 100 µM (inactive)

Q. Request: COC(=O)c1cnc(Cl)c([N+](=O)[O-])c1
A. 2.12 µM (inactive)

Q. Request: CSc1ccsc1-c1sc(-c2cc(SC)c(-c3sc(-c4cc(SC)c(-c5sccc5SC)s4)cc3SC)s2)cc1SC
A. 57.1 µM (inactive)

Q. What would you report for CCCn1c2ccccc2c2ccc3c(c21)C(=O)C=CC3=O ?
A. 2.19 µM (inactive)
